experimental.target: UniProtKB P16562
Sequence (P16562 22-243): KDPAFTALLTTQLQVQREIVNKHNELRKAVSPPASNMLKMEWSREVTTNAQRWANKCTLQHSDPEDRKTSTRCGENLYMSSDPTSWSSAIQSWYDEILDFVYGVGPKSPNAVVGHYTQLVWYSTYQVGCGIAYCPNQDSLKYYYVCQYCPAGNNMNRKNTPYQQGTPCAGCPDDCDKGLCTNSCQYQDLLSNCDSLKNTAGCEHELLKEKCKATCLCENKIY
Sequence (P04217 with tags, fused parts or gaps partner): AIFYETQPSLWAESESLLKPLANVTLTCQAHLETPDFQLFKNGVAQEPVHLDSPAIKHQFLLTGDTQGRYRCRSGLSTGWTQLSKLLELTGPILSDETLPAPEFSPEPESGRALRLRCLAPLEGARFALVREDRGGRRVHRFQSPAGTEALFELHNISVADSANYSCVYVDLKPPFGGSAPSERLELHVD
run.description: Microscale thermophoresis (MST) binding to fluorescently labeled CRISP2
particulars: Kd of cholesterol sulfate binding by CRISP2 in the presence of Ig1, MST; CRISP2-Ig1
Structures can show the parent of a compound that is named as a salt.
quantity.name: Kd (µM)
Express your answer in µM, writing the number without its unit.

Exercise: Which Kd value belongs to CC(C)CCC[C@@H](C)[C@H]1CC[C@H]2[C@@H]3CC=C4C[C@@H](OS(=O)(=O)O)CC[C@]4(C)[C@H]3CC[C@]12C [cholesterol sulfate] ?
Key: 4

* * *

experimental.target: CRISP2 (Homo sapiens, UniProt P16562)
run.description: Microscale thermophoresis (MST) binding to fluorescently labeled CRISP2
particulars: Kd of cholesterol sulfate binding by CRISP2 in the presence of Ig4, MST; CRISP2-Ig4
Where a name gives a salt, the structure may show the parent alone.
quantity.name: Kd (nM)
Express your answer in nM, writing the number without its unit.

Exercise: Form entry - test system: CRISP2 (Homo sapiens, UniProt P16562); read-out: Kd; compound: CC(C)CCC[C@@H](C)[C@H]1CC[C@H]2[C@@H]3CC=C4C[C@@H](OS(=O)(=O)O)CC[C@]4(C)[C@H]3CC[C@]12C [cholesterol sulfate]
Key: 2050

* * *

experimental.target: CRISP2 (Homo sapiens)
Sequence (P16562 22-243): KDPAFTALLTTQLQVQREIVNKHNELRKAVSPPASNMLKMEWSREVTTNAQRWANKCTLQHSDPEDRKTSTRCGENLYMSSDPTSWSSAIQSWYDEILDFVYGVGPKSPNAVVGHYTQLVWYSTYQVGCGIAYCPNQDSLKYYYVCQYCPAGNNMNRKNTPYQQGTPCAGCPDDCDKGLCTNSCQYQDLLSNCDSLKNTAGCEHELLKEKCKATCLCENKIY
run.description: Microscale thermophoresis (MST) binding to fluorescently labeled CRISP2
particulars: Kd of palmitic acid binding by CRISP2, MST; CRISP2 alone
quantity.name: pKd
Note on pKd: it is the negative log10 of concentration, concentration in mol/L.

Exercise: Which pKd value belongs to `CCCCCCCCCCCCCCCC(=O)O` ?
Key: 4.19
